Assay: MTT cytotoxicity assay
Assay type: cell-based, African green monkey
Settings: African green monkey; Vero cells, MTT; read-out: CC50
parameter measured: CC50 at 3 days (mg/L)

molecule: C[C@@H]1O[C@@H](Oc2c(-c3ccc(O)c(O)c3)oc3cc(O)cc(O)c3c2=O)[C@H](O)[C@H](O)[C@H]1O
parameter measured: CC50 at 3 days
censoring sign: =
value measured: 142
//
molecule: O=c1c(O)c(-c2ccc(O)c(O)c2)oc2cc(O)cc(O)c12
parameter measured: CC50 at 3 days
censoring sign: =
value measured: 486
//
molecule: O=C(/C=C/c1ccc(O)c(O)c1)O[C@@H]1C[C@](O)(C(=O)O)C[C@@H](O)[C@H]1O
parameter measured: CC50 at 3 days
censoring sign: =
value measured: 1240
//
molecule: Nc1nc2c(ncn2COCCO)c(=O)[nH]1 [Acyclovir, acyclovir, reference compound]
parameter measured: CC50 at 3 days
censoring sign: >
value measured: 450
//
molecule: O=c1c(O[C@@H]2O[C@H](CO)[C@@H](O)[C@H](O)[C@H]2O)c(-c2ccc(O)c(O)c2)oc2cc(O)cc(O)c12
parameter measured: CC50 at 3 days
censoring sign: >
value measured: 200

Ref: paper PMC4314066
